# test_details: Bioavailability in Beagle dog at 0.5 mg/kg, iv and 2 mg/kg, po
# Type: ADME, organism-based, Canis lupus familiaris
# settings: in vivo
experimental_endpoint: bioavailability (%)
Answer in %, number only, no unit symbol.

Value lookup for bioavailability; key = CCS(=O)(=O)CCC12CCC(c3nnc(-c4ccccc4C(F)(F)F)n3C)(CC1)CC2 59

----------
# test_details: Half life in C57 mouse at 2 mg/kg, iv and 10 mg/kg, po
# Type: ADME, organism-based
# settings: in vivo
experimental_endpoint: half-life (h)
Answer in h, number only, no unit symbol.

Value lookup for half-life; key = CCS(=O)(=O)CCC12CCC(c3nnc(-c4ccccc4C(F)(F)F)n3C)(CC1)CC2 4.8

----------
# test_details: Clearance in C57 mouse at 2 mg/kg, iv
# Type: ADME, organism-based
# Set-up: dose 2 mg/kg, route intravenous
# settings: in vivo
experimental_endpoint: clearance (mL/min/kg)
Answer in mL/min/kg, number only, no unit symbol.

Value lookup for clearance; key = CC(=O)CCCC12CCC(c3nnc(-c4ccccc4C(F)(F)F)n3C)(CC1)CC2 21

Value lookup for clearance; key = Cn1c(-c2ccccc2C(F)(F)F)nnc1C12CCC(CCCC(C)(F)F)(CC1)CC2 14

Value lookup for clearance; key = CC(O)CCCC12CCC(c3nnc(-c4ccccc4C(F)(F)F)n3C)(CC1)CC2 (stereo not given) 88

Value lookup for clearance; key = CCS(=O)(=O)CCC12CCC(c3nnc(-c4ccccc4C(F)(F)F)n3C)(CC1)CC2 2.1

Value lookup for clearance; key = CCCCCC12CCC(c3nnc(-c4ccccc4C(F)(F)F)n3C)(CC1)CC2 273

----------
# study_system: UniProt:P50172
# test_details: Inhibition of mouse 11beta-HSD1 expressed in CHO-K1 cells assessed as conversion of [3H]-cortisone to [3H]-cortisol by scintillation proximity assay
Here, each record is paired with measured IC50 data.
Answer in nM, number only, no unit symbol.

compound	study_system	measurement_units	IC50
Cn1c(-c2ccccc2C(F)(F)F)nnc1C12CCC(CCS(=O)(=O)c3ccc(F)cc3)(CC1)CC2	UniProt:P50172	nM	1.8
CCS(=O)(=O)CCCCC12CCC(c3nnc(-c4ccccc4C(F)(F)F)n3C)(CC1)CC2	UniProt:P50172	nM	1.8
Cn1c(-c2ccccc2C(F)(F)F)nnc1C12CCC(CCS(=O)(=O)c3ccccc3)(CC1)CC2	UniProt:P50172	nM	1.6
Cn1c(-c2ccccc2C(F)(F)F)nnc1C12CCC(CCS(C)(=O)=O)(CC1)CC2	UniProt:P50172	nM	4.1
Cn1c(-c2ccccc2C(F)(F)F)nnc1C12CCC(COc3ccc(S(C)(=O)=O)cc3)(CC1)CC2	UniProt:P50172	nM	2

Value lookup for IC50; key = CC(C)S(=O)(=O)CCC12CCC(c3nnc(-c4ccccc4C(F)(F)F)n3C)(CC1)CC2 3.6

Value lookup for IC50; key = CCS(=O)(=O)CCCC12CCC(c3nnc(-c4ccccc4C(F)(F)F)n3C)(CC1)CC2 2.4

----------
# test_details: Bioavailability in C57 mouse at 2 mg/kg, iv and 10 mg/kg, po
# Format: ADME, organism-based
# settings: in vivo
bioavailability of 20% or higher: yes (1). Under 20%: no (0).

Record excerpt, results attached:
compound	label
CC(O)CCCC12CCC(c3nnc(-c4ccccc4C(F)(F)F)n3C)(CC1)CC2 (stereo unspecified)	yes (1)
CC(=O)CCCC12CCC(c3nnc(-c4ccccc4C(F)(F)F)n3C)(CC1)CC2	yes (1)
CCCCCC12CCC(c3nnc4n3CCCCCC4)(CC1)CC2	no (0)

State whether the measured bioavailability reaches 20%, counting equality as reaching it, for Cn1c(-c2ccccc2C(F)(F)F)nnc1C12CCC(CCCC(C)(F)F)(CC1)CC2 yes (1)

State whether the measured bioavailability reaches 20%, counting equality as reaching it, for CCS(=O)(=O)CCC12CCC(c3nnc(-c4ccccc4C(F)(F)F)n3C)(CC1)CC2 yes (1)

----------
# test_details: Bioavailability in rhesus monkey at 0.5 mg/kg, iv and 2 mg/kg, po
# Assay type: ADME, organism-based, Macaca mulatta
# settings: in vivo
experimental_endpoint: bioavailability (%)
Answer in %, number only, no unit symbol.

Value lookup for bioavailability; key = CCS(=O)(=O)CCC12CCC(c3nnc(-c4ccccc4C(F)(F)F)n3C)(CC1)CC2 89

----------
# test_details: Tmax in C57 mouse at 2 mg/kg, iv and 10 mg/kg, po
# Assay type: ADME, organism-based
# settings: in vivo
experimental_endpoint: Tmax (h)
Answer in h, number only, no unit symbol.

Value lookup for Tmax; key = CCS(=O)(=O)CCC12CCC(c3nnc(-c4ccccc4C(F)(F)F)n3C)(CC1)CC2 5

----------
# test_details: Tmax in Sprague-Dawley rat at 1 mg/kg, iv and 4 mg/kg, po
# Format: ADME, organism-based
# settings: in vivo
experimental_endpoint: Tmax (h)
Answer in h, number only, no unit symbol.

Value lookup for Tmax; key = CCS(=O)(=O)CCC12CCC(c3nnc(-c4ccccc4C(F)(F)F)n3C)(CC1)CC2 2

----------
# study_system: 11-beta-hydroxysteroid dehydrogenase 1 (Homo sapiens, UniProt P28845)
# Sequence (P28845 whole entry): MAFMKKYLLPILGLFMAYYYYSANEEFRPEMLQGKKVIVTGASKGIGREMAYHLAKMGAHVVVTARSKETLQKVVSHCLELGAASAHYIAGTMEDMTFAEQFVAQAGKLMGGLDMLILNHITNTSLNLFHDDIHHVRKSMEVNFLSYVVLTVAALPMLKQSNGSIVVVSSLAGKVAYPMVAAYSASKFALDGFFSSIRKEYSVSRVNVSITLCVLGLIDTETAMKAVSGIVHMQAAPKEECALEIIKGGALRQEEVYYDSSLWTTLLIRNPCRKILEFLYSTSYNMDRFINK
# test_details: Inhibition of human 11beta-HSD1 expressed in CHO-K1 cells assessed as conversion of [3H]-cortisone to [3H]-cortisol by scintillation proximity assay
Here, each record is paired with measured IC50 data.

Use the examples below as a reference point.
molecule	IC50
Cn1c(-c2ccccc2C(F)(F)F)nnc1C12CCC(CCS(=O)(=O)c3ccc(F)cc3)(CC1)CC2	5.5 nM
CC(O)CCCC12CCC(c3nnc(-c4ccccc4C(F)(F)F)n3C)(CC1)CC2 (stereo unspecified)	< 1 nM
CCCS(=O)(=O)CCC12CCC(c3nnc(-c4ccccc4C(F)(F)F)n3C)(CC1)CC2	5.1 nM
CC[S+]([O-])CCC12CCC(c3nnc(-c4ccccc4C(F)(F)F)n3C)(CC1)CC2 (stereo unspecified)	4.1 nM
COCCCCC12CCC(c3nnc(-c4ccccc4C(F)(F)F)n3C)(CC1)CC2	2 nM

Could you now consider this next molecule?
Value lookup for IC50; key = CCS(=O)(=O)CCC12CCC(c3nnc(-c4ccccc4Cl)n3C)(CC1)CC2 7.5 nM

----------
# test_details: Volume of distribution in Sprague-Dawley rat at 1 mg/kg, iv and 4 mg/kg, po
# Format: ADME, organism-based
# settings: in vivo
experimental_endpoint: Vd (L/kg)
Answer in L/kg, number only, no unit symbol.

Value lookup for Vd; key = CCS(=O)(=O)CCC12CCC(c3nnc(-c4ccccc4C(F)(F)F)n3C)(CC1)CC2 1.1

----------
# study_system: 11-beta-hydroxysteroid dehydrogenase 1 (Mus musculus, UniProt P50172)
# Sequence (P50172 whole entry): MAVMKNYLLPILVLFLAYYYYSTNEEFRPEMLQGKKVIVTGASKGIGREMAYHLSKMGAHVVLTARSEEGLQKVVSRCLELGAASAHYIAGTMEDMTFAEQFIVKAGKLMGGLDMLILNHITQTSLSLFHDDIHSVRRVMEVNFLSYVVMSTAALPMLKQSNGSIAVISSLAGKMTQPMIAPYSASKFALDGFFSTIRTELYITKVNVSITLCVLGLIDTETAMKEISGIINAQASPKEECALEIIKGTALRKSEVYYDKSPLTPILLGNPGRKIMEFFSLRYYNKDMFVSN
# test_details: Inhibition of mouse 11beta-HSD1 expressed in CHO-K1 cells assessed as conversion of [3H]-cortisone to [3H]-cortisol by scintillation proximity assay
Here, each record is paired with measured pIC50 data.
Scale: pIC50 equals -log10([C]), with [C] in mol/L.

Use the examples below as a reference point.
compound	study_system	pIC50
CC(O)CCCC12CCC(c3nnc4n3CCCCCC4)(CC1)CC2 (stereo not given)	11-beta-hydroxysteroid dehydrogenase 1 (Mus musculus, UniProt P50172)	7.72
CCS(=O)(=O)CCC12CCC(c3nnc(-c4cccc(Cl)c4)n3C)(CC1)CC2	11-beta-hydroxysteroid dehydrogenase 1 (Mus musculus, UniProt P50172)	5.96

Value lookup for pIC50; key = COCCCCC12CCC(c3nnc(-c4ccccc4C(F)(F)F)n3C)(CC1)CC2 8.70

Value lookup for pIC50; key = Cn1c(-c2ccccc2C(F)(F)F)nnc1C12CCC(CNS(C)(=O)=O)(CC1)CC2 8.40

Value lookup for pIC50; key = CCS(=O)(=O)CCC12CCC(c3nnc(-c4ccc(O)cc4Cl)n3C)(CC1)CC2 8.52

Value lookup for pIC50; key = CCCS(=O)(=O)NCC12CCC(c3nnc(-c4ccccc4C(F)(F)F)n3C)(CC1)CC2 9.00

Value lookup for pIC50; key = CCS(=O)(=O)CC12CCC(c3nnc(-c4ccccc4C(F)(F)F)n3C)(CC1)CC2 8.40

Value lookup for pIC50; key = Cn1c(-c2ccccc2C(F)(F)F)nnc1C12CCC(COc3ccc(Cl)cc3)(CC1)CC2 8.82

----------
# study_system: 11-beta-hydroxysteroid dehydrogenase type 2 (Homo sapiens, UniProt P80365)
# Sequence (P80365 whole entry): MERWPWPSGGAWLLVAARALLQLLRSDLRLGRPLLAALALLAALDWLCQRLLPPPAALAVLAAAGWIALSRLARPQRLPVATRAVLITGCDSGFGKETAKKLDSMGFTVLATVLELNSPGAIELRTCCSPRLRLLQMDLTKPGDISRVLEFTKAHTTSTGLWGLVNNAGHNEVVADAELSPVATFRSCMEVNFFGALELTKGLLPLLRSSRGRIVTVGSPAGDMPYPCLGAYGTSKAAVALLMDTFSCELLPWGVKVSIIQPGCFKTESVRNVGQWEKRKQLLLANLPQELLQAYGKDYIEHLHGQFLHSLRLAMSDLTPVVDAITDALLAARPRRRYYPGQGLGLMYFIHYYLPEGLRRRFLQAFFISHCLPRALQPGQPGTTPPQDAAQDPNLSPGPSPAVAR
# test_details: Inhibition of human 11beta-HSD2 expressed in CHO-K1 cells assessed as conversion of [3H]-cortisol to [3H]-cortisone by scintillation proximity assay
pIC50: −log10 of the molar value.
experimental_endpoint: pIC50

compound	study_system	pIC50
CCS(=O)(=O)CCCCC12CCC(c3nnc(-c4ccccc4C(F)(F)F)n3C)(CC1)CC2	11-beta-hydroxysteroid dehydrogenase type 2 (Homo sapiens, UniProt P80365)	< 5.40
Cn1c(-c2ccccc2C(F)(F)F)nnc1C12CCC(CCS(=O)(=O)C(C)(C)C)(CC1)CC2	11-beta-hydroxysteroid dehydrogenase type 2 (Homo sapiens, UniProt P80365)	< 5.40
Cn1c(-c2ccccc2C(F)(F)F)nnc1C12CCC(COc3ccc(S(C)(=O)=O)cc3)(CC1)CC2	11-beta-hydroxysteroid dehydrogenase type 2 (Homo sapiens, UniProt P80365)	< 5.40
CCOCC12CCC(c3nnc(-c4ccccc4C(F)(F)F)n3C)(CC1)CC2	11-beta-hydroxysteroid dehydrogenase type 2 (Homo sapiens, UniProt P80365)	< 5.40
CCSCCC12CCC(c3nnc(-c4ccccc4C(F)(F)F)n3C)(CC1)CC2	11-beta-hydroxysteroid dehydrogenase type 2 (Homo sapiens, UniProt P80365)	< 5.40

Value lookup for pIC50; key = CCS(=O)(=O)NCC12CCC(c3nnc(-c4ccccc4C(F)(F)F)n3C)(CC1)CC2 < 5.40

Value lookup for pIC50; key = Cn1c(-c2ccccc2C(F)(F)F)nnc1C12CCC(CCCC(C)(F)F)(CC1)CC2 < 5.40

Value lookup for pIC50; key = CCS(=O)(=O)CCC12CCC(c3nnc(-c4ccccc4F)n3C)(CC1)CC2 < 5.40

Value lookup for pIC50; key = COCCCCC12CCC(c3nnc(-c4ccccc4C(F)(F)F)n3C)(CC1)CC2 5.40

Value lookup for pIC50; key = CCS(=O)(=O)CCC12CCC(c3nnc(-c4ccc(O)cc4Cl)n3C)(CC1)CC2 < 5.40

Value lookup for pIC50; key = Cn1c(-c2ccccc2C(F)(F)F)nnc1C12CCC(CCS(=O)(=O)c3ccccc3)(CC1)CC2 < 5.40
